target: T1, soluble mouse BLyS (mouse, UniProt Q9WU72 127-309); assay: Biacore T100, binder captured by anti-human Fc, BLyS injected, 1:1 model
T1 construct: europium-labelled in DELFIA; also called mBLyS; mouse BAFF (BLyS)
endpoint.label: Kd (nM)
Write the value in nM as a bare number.

[
  {
    "binder": "belimumab (antibody, V domains shown) VH: QVQLQQSGAEVKKPGSSVRVSCKASGGTFNNNAINWVRQAPGQGLEWMGGIIPMFGTAKYSQNFQGRVAITADESTGTASMELSSLRSEDTAVYYCARSRDLLLFPHHALSPWGRGTMVTVSS VL: SSELTQDPAVSVALGQTVRVTCQGDSLRSYYASWYQQKPGQAPVLVIYGKNNRPSGIPDRFSGSSSGNTASLTITGAQAEDEADYYCSSRDSSGNHWVFGGGTELTVLG",
    "endpoint.value": 0.0635
  },
  {
    "binder": "mouse TACI (R&D Systems receptor chimera) (receptor, UniProt Q9ET35 2-129, looked up, not shown: a dimerising Fc or GST, also called mTACI; TACI rec Mouse) AMAFCPKDQYWDSSRKSCVSCALTCSQRSQRTCTDFCKFINCRKEQGRYYDHLLGACVSCDSTCTQHPQQCAHFCEKRPRSQANLQPELGRPQAGEVEVRSDNSGRHQGSEHGPGLRLSSDQLTLYCT",
    "endpoint.value": 0.177
  },
  {
    "binder": "human TACI (R&D Systems receptor chimera) (receptor, UniProt O14836 2-166, looked up, not shown: a dimerising Fc or GST, also called hTACI; TACI rec Human) SGLGRSRRGGRSRVDQEERFPQGLWTGVAMRSCPEEQYWDPLLGTCMSCKTICNHQSQRTCAAFCRSLSCRKEQGKFYDHLLRDCISCASICGQHPKQCAYFCENKLRSPVNLPPELRRQRSGEVENNSDNSGRYQGLEHRGSEASPALPGLKLSADQVALVYST",
    "endpoint.value": 0.105
  }
]

Now consider a different binder.
Q) Quick one: Kd of 8D12 IgG1 F243A/V264A double mutein expressed in Pichia pastoris (antibody, V domains shown, IgG1 F243A/V264A (EU) double mutein, alpha-2,6-sialylated, from glycoengineered Pichia pastoris; also called 8D12-DM; 8D12-DM (Pichia)) VH: QVQLVQSGAEVKKPGASVKVSCKASGYTFTSYAMHWVRQAPGQRLEWMGWINAGNGNTKYSQKFQGRVTITRDTSASTAYMELSSLRSEDTAVYYCARAYYDILTGYSVYGMDVWGQGTTVTVSS VL: EIVLTQSPATLSLSPGERATLSCRANESVGNYLAWYQQKPGQAPRLLIYGASRRATGIPDRFSGSGSGTDFTLTISRLEPEDFAVYYCQQYGSSLLTFGGGTKVEIKR ?
A) 0.134
